Entry source: patent US11434242B2

- experimentalSystem: Dopamine beta hydroxylase (Homo sapiens)
- Construct: 125 μl of plasma; tissue Instituto Português do Sangue Transplantação; host or cells: human plasma from healthy donors
- Sequence (P09172 40-617 limits assumed): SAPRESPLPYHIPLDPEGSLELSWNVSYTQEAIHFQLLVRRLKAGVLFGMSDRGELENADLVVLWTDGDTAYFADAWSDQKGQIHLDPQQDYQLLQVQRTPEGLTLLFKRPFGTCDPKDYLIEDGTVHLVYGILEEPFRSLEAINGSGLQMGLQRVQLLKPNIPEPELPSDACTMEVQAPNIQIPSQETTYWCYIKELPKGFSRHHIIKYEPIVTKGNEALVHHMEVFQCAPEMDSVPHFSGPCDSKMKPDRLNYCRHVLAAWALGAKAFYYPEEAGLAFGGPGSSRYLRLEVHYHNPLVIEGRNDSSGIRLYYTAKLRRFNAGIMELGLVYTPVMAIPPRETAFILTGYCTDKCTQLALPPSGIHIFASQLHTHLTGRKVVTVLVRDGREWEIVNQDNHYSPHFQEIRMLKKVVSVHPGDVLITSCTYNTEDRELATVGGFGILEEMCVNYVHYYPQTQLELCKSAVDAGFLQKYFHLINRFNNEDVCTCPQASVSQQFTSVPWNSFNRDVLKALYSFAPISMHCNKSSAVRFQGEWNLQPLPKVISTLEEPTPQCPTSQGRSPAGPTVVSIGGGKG
- assayProtocol: Dopamine beta hydroxylase activity in human plasma
- Type: biochemical
- conditionNotes: inhibitor 1 μM
Provide the reported Plasma (1 μM), activity in % of control of each item.

compound	measured
O=C(Cc1[nH]c(=S)n2c1C[C@@H](c1c(F)ccc(Br)c1F)C2)NCC1CC1 [Example 95]	0 % of control
NC(=O)Cc1[nH]c(=S)n2c1[C@@H]1C[C@]1(c1cc(F)cc(Cl)c1)C2 [Example 58]	14.0 % of control
O=C(Cc1[nH]c(=S)n2c1C[C@H](c1c(F)c(F)cc(F)c1F)C2)N1CCC(CO)CC1 [Example 83]	15.9 % of control
O=C(Cc1[nH]c(=S)n2c1C[C@H](c1c(F)c(F)cc(F)c1F)C2)NCC1CC1 [Example 79]	10.3 % of control
CCOC(=O)Cc1[nH]c(=S)n2c1C[C@H](c1cc(F)ccc1F)C2 [Example 61]	47.9 % of control

Now consider the entry below.
Task: Missing value: Plasma (1 μM), activity in % of control, Dopamine beta hydroxylase (Homo sapiens), entry O=C(Cc1[nH]c(=S)n2c1C[C@H](c1c(F)cccc1F)C2)N[C@@H]1CCOC1 [Example 77] . Fill in?
Result: 38.9 % of control

###

Provide the reported Plasma (0.01 μM), activity in % of control of each item.
- experimentalSystem: Dopamine beta hydroxylase (Homo sapiens)
- Construct: 125 μl of plasma; tissue Instituto Português do Sangue Transplantação; host or cells: human plasma from healthy donors
- assayProtocol: Dopamine beta hydroxylase activity in human plasma
- Format: biochemical
- conditionNotes: inhibitor 0.01 μM

Below, 4 compounds whose answers are already recorded.
lineNotation	measured
CN(C(=O)Cc1c2n(c(=S)n1C)C[C@@]1(c3cc(Cl)ccc3F)C[C@@H]21)[C@@H]1CCOC1	65.8 % of control
Cl.Fc1ccc(Br)cc1[C@]12C[C@H]1c1c(CCN3CCCC3)[nH]c(=S)n1C2	72.9 % of control
N#CCNC(=O)Cc1[nH]c(=S)n2c1C[C@H](c1c(F)ccc(Br)c1F)C2	84.3 % of control
Cn1c(CC(=O)N2CCCCC2)c2n(c1=S)C[C@@]1(c3cc(Cl)ccc3F)C[C@@H]21	87.2 % of control

Parameters: items (list). Returns: Plasma (0.01 μM), activity in % of control for each item.
1. CN(C(=O)Cc1[nH]c(=S)n2c1C[C@H](c1c(F)ccc(Br)c1F)C2)C1CCOCC1
2. Cn1c(CC(=O)NC2COC2)c2n(c1=S)C[C@H](c1c(F)ccc(F)c1F)C2
3. Cn1c(CC(=O)N2CCOCC2)c2n(c1=S)C[C@@H](c1c(F)ccc(F)c1F)C2
4. Fc1ccc(Br)c(F)c1[C@@H]1Cc2c(CCNC3CCC3)[nH]c(=S)n2C1

Result:
["98.1 % of control", "79.7 % of control", "92.9 % of control", "68.9 % of control"]

###

- experimentalSystem: Dopamine beta hydroxylase (Homo sapiens)
- Construct: 125 μl of plasma; tissue Instituto Português do Sangue Transplantação; host or cells: human plasma from healthy donors
- assayProtocol: Dopamine beta hydroxylase activity in human plasma
- Format: biochemical
- conditionNotes: inhibitor 0.01 μM
Where a name gives a salt, the structure may show the parent alone.
Provide the reported Plasma (0.01 μM), activity in % of control of each item.

Below, 3 compounds whose answers are already recorded.
compound	measured
Fc1cc(F)c(F)c([C@H]2Cc3c(CN4CCOCC4)[nH]c(=S)n3C2)c1F [Example 209, Hydrochloride]	87.6 % of control
Cn1c(CC(=O)N[C@@H]2CCCOC2)c2n(c1=S)C[C@H](c1c(F)ccc(Cl)c1F)C2	49.9 % of control
Cn1c(CC(=O)N[C@@H]2CCCNC2=O)c2n(c1=S)C[C@@H](c1c(F)ccc(F)c1F)C2	106.2 % of control

Task: Need Plasma (0.01 μM), activity in % of control, item Cn1c(CC(=O)NC2CCOCC2)c2n(c1=S)C[C@@]1(c3c(F)ccc(Cl)c3F)C[C@@H]21
Result: 18.5 % of control
